# measurement target: PI3k δ (Homo sapiens)
# Construct: Full length p110 subunits of PI3k α, β and δ; polyHis (N); made in house; host or cells: Sf9 insect cells (baculovirus)
# Sequence (O00329 whole entry): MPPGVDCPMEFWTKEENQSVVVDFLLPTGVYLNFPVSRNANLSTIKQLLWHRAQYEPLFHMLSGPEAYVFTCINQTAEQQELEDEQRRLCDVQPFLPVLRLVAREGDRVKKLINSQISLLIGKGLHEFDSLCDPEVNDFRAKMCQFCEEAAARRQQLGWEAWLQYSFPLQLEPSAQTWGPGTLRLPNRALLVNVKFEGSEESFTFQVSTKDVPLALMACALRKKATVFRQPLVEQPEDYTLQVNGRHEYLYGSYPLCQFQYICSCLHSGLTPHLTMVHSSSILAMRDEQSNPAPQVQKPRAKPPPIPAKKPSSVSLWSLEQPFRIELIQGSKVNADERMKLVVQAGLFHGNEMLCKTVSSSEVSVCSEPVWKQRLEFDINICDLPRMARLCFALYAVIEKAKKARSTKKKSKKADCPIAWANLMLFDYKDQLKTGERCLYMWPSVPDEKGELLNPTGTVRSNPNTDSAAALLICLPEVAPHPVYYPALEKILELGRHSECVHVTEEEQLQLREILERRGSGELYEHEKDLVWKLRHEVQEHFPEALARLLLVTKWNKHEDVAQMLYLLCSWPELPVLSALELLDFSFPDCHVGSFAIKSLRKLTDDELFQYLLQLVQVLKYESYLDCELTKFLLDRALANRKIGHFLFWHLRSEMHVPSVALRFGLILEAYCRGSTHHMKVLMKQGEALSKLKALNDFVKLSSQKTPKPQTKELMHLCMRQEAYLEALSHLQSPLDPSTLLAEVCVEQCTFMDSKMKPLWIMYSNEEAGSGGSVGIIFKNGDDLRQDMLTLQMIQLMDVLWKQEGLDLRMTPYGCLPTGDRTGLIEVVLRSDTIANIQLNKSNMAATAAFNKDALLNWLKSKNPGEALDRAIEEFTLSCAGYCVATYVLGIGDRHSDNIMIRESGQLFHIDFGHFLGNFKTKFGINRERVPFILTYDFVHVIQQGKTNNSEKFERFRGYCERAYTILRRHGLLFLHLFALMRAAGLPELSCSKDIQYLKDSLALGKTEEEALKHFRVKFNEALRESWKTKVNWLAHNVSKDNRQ
# Sequence (P27986 whole entry partner): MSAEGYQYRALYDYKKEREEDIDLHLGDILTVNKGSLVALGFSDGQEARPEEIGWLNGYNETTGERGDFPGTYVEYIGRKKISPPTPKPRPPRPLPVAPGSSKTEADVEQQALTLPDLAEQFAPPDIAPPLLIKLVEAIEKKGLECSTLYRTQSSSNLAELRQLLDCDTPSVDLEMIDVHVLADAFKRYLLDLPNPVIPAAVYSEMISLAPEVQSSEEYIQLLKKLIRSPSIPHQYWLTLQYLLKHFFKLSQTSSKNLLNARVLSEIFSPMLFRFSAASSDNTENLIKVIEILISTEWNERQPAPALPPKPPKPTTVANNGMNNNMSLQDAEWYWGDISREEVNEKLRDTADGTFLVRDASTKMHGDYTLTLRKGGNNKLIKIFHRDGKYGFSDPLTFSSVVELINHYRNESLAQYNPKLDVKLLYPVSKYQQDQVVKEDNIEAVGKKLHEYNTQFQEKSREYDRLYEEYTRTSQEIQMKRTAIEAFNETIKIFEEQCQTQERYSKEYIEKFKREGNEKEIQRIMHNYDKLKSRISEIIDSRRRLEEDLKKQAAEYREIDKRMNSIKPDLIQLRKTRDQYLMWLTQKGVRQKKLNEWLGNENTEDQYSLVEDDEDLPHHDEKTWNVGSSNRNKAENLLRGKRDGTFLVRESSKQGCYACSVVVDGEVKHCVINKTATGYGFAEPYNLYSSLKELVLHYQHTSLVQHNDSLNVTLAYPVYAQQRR
# method description: biochemical
# Format: biochemical
# condition label: read-out: PI3k δ Ki
pKi: −log10 of the molar value.
Class membership depends on pKi alone; the intervals are band A: < 7; band B: ≥ 7 and < 8; band C: ≥ 8

Pick a category. Item: "C[C@H](Nc1ncnc(N)c1C#N)c1nc2ncccn2c1-c1ccccn1"
band A

Pick a category. Item: "C[C@H](Nc1ncnc(N)c1C#N)c1nc2ccc(F)cn2c1-c1ccc(Cl)cc1"
band B

Pick a category. Item: "C[C@H](Nc1ncnc(N)c1C#N)c1nc2c(S(C)(=O)=O)cccc2n1Cc1ccc(F)cc1"
band A

Pick a category. Item: "CNC(=O)c1cccc2nc([C@H](C)Nc3ncnc(N)c3C(F)(F)F)n(C3CC3)c12"
band B

Pick a category. Item: "CC[C@H](Nc1ncnc(N)c1C#N)c1nc2cccc(C(=O)NC)c2n1C1CC1"
band B

Pick a category. Item: "CSc1cccc(-n2c([C@H](C)Nc3ncnc(N)c3C#N)nc3cc(F)ccc32)c1"
band B

Pick a category. Item: "C[C@@H](Nc1ncnc(N)c1C#N)c1nc2cc(F)ccc2n1-c1cncc(F)c1"
band A

Pick a category. Item: "CNC(=O)c1cccc2nc([C@H](C)Nc3ncnc(N)c3S(C)(=O)=O)n(C3CC3)c12"
band B

Pick a category. Item: "C[C@@H](Nc1ncnc(N)c1C#N)c1nc2cccc(C#N)c2n1-c1cncc(F)c1"
band A

Pick a category. Item: "C[C@@H](Nc1ncnc(N)c1C#N)c1nc2cccc(S(C)(=O)=O)c2n1C1CC1"
band A

Pick a category. Item: "C[C@H](Nc1ncnc2[nH]cnc12)c1nc2ccc(F)cc2n1-c1cncc(F)c1"
band C

Pick a category. Item: "C[C@H](Nc1ncnc(N)c1C#N)c1nc2ccc(F)cc2n1-c1cccc(C#N)c1"
band B

Pick a category. Item: "C[C@H](Nc1ncnc(N)c1C#N)c1nc2cccc(C#N)c2n1-c1cncc(F)c1"
band A

Pick a category. Item: "C[C@H](Nc1ncnc2[nH]cnc12)c1nc2cccc(F)c2[nH]1"
band A

Pick a category. Item: "C[C@H](Nc1ncnc(N)c1C#N)c1nc2c(F)cc(F)cc2n1-c1cc(F)cc(F)c1"
band C

Pick a category. Item: "C[C@H](Nc1ncnc(N)c1C#N)c1nc2cccc(Br)c2n1-c1cncc(F)c1"
band B

Pick a category. Item: "C[C@H](Nc1ncnc(N)c1C#N)c1nc2cccc(F)c2[nH]1"
band A

Pick a category. Item: "C[C@@H](Nc1ncnc(N)c1C#N)c1nc2c(F)cccc2n1-c1cc(F)cc(F)c1"
band A

Pick a category. Item: "CNC(=O)c1cccc(-n2c([C@H](C)Nc3ncnc(N)c3C#N)nc3ccc(F)cc32)c1"
band B

Pick a category. Item: "C[C@H](Nc1ncnc(N)c1C#N)c1nc2cccc(S(C)(=O)=O)c2n1Cc1cc(F)cc(F)c1"
band A

Pick a category. Item: "C[C@H](Nc1ncnc(N)c1C#N)c1nc2cnccn2c1-c1ccccn1"
band A

Pick a category. Item: "C[C@H](Nc1ncnc(N)c1C#N)c1nc2cccc(S(C)(=O)=O)c2n1CC1CC1"
band C

Pick a category. Item: "C[C@H](Nc1ncnc(N)c1C#N)c1nc2ccc(F)cc2n1CC1CC1"
band C

Pick a category. Item: "CC[C@H](Nc1ncnc(N)c1C#N)c1nc2cccc(S(C)(=O)=O)c2n1CC1CC1"
band C

Pick a category. Item: "C[C@H](Nc1ncnc(N)c1C#N)c1nc2cccc(F)c2n1-c1cc(F)cc(F)c1"
band C

Pick a category. Item: "CNC(=O)c1cccc2nc([C@@H](C)Nc3ncnc(N)c3C#N)n(-c3cncc(F)c3)c12"
band A

Pick a category. Item: CC(Nc1ncnc(N)c1C#N)c1sc2ccccc2c1-c1cc(F)cc(F)c1 (stereo not drawn)
band C

Data provenance is patent US8575183B2.
